System: RXRa homodimer (NR concentration 180 nM)
experimental details: PBM binding z-score (relative to random genomic background probes); higher = stronger binding; sequences stand for … in GC…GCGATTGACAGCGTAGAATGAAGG
# Lookup of reported PBM binding z-score keyed by entry

sequence text: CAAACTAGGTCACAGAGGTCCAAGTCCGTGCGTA
system: RXRa homodimer (NR concentration 180 nM)
PBM binding z-score: 3.35

sequence text: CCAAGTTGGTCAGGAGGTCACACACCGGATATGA
system: RXRa homodimer (NR concentration 180 nM)
PBM binding z-score: 4.6

sequence text: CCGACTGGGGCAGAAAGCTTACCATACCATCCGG
system: RXRa homodimer (NR concentration 180 nM)
PBM binding z-score: -0.422

sequence text: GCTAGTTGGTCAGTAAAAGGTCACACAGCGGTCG
system: RXRa homodimer (NR concentration 180 nM)
PBM binding z-score: 5.48

sequence text: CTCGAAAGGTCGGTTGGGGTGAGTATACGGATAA
system: RXRa homodimer (NR concentration 180 nM)
PBM binding z-score: 2.69

sequence text: GCTGCTAGGTCAACTGATGGTCCGCTAAAGCTCG
system: RXRa homodimer (NR concentration 180 nM)
PBM binding z-score: 2.8

###

Tested on: PPARg:RXRa IVT, anti-PPARg (NR concentration 270 nM, RXRa partner concentration 90 nM)
experimental details: PBM binding z-score (relative to random genomic background probes); higher = stronger binding; sequences stand for … in GC…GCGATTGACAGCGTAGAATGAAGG

sequence text: TCTCGGAGGACACGAAAGGTCAGCGCTCGACATC
system: PPARg:RXRa IVT, anti-PPARg (NR concentration 270 nM, RXRa partner concentration 90 nM)
PBM binding z-score: 1.8
//
sequence text: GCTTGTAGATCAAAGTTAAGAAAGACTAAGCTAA
system: PPARg:RXRa IVT, anti-PPARg (NR concentration 270 nM, RXRa partner concentration 90 nM)
PBM binding z-score: 0.871
//
sequence text: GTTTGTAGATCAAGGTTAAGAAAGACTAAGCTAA
system: PPARg:RXRa IVT, anti-PPARg (NR concentration 270 nM, RXRa partner concentration 90 nM)
PBM binding z-score: 1.93
//
sequence text: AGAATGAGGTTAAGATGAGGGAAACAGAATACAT
system: PPARg:RXRa IVT, anti-PPARg (NR concentration 270 nM, RXRa partner concentration 90 nM)
PBM binding z-score: 2.39
//
sequence text: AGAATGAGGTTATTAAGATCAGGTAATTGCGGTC
system: PPARg:RXRa IVT, anti-PPARg (NR concentration 270 nM, RXRa partner concentration 90 nM)
PBM binding z-score: 2.83
//
sequence text: GCTACTGGGGCAAAGCAGGTTACCATAAGGTTGG
system: PPARg:RXRa IVT, anti-PPARg (NR concentration 270 nM, RXRa partner concentration 90 nM)
PBM binding z-score: 5.54
//
sequence text: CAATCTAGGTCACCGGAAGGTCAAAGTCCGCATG
system: PPARg:RXRa IVT, anti-PPARg (NR concentration 270 nM, RXRa partner concentration 90 nM)
PBM binding z-score: 8.62
//
sequence text: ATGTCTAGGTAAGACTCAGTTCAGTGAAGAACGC
system: PPARg:RXRa IVT, anti-PPARg (NR concentration 270 nM, RXRa partner concentration 90 nM)
PBM binding z-score: 0.996
//
sequence text: ATCTCTAAGTAAAGTTCAGTGAAAGATCGATAGA
system: PPARg:RXRa IVT, anti-PPARg (NR concentration 270 nM, RXRa partner concentration 90 nM)
PBM binding z-score: 0.648
//
sequence text: TTACCAAGGTGAAAGGTCGTTCATGCACGCCTTG
system: PPARg:RXRa IVT, anti-PPARg (NR concentration 270 nM, RXRa partner concentration 90 nM)
PBM binding z-score: 5.04
//
sequence text: TCATATAGGTAAATGCTACGTGAAAGTCCGATCT
system: PPARg:RXRa IVT, anti-PPARg (NR concentration 270 nM, RXRa partner concentration 90 nM)
PBM binding z-score: 2.01
//
sequence text: ATCTCTAGGTAAAAGTTTAGTGAATCCCGAGGAT
system: PPARg:RXRa IVT, anti-PPARg (NR concentration 270 nM, RXRa partner concentration 90 nM)
PBM binding z-score: 2.09
//
sequence text: CTACCCAGGTGAACAAGGTCGTTGATTACTATTC
system: PPARg:RXRa IVT, anti-PPARg (NR concentration 270 nM, RXRa partner concentration 90 nM)
PBM binding z-score: 2.27
//
sequence text: TCGAGTAGGTTAGGGGCGTTCAGAATGGCGTCGA
system: PPARg:RXRa IVT, anti-PPARg (NR concentration 270 nM, RXRa partner concentration 90 nM)
PBM binding z-score: 1.26
//
sequence text: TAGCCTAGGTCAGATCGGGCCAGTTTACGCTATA
system: PPARg:RXRa IVT, anti-PPARg (NR concentration 270 nM, RXRa partner concentration 90 nM)
PBM binding z-score: 1.12
//
sequence text: CCGAGTAGGTTATGGGGCATTAAGGCAACGGTGA
system: PPARg:RXRa IVT, anti-PPARg (NR concentration 270 nM, RXRa partner concentration 90 nM)
PBM binding z-score: 3.54
//
sequence text: CGTCCACGGTCAGAGAGGTCAGTGAATGCCGAGT
system: PPARg:RXRa IVT, anti-PPARg (NR concentration 270 nM, RXRa partner concentration 90 nM)
PBM binding z-score: 1.17
//
sequence text: CCTTACGGGTCACCCCAGGTTATAGCATCGGAGT
system: PPARg:RXRa IVT, anti-PPARg (NR concentration 270 nM, RXRa partner concentration 90 nM)
PBM binding z-score: 3.6
//
sequence text: GCTACAGGGTCAGCTAGAGGCCAGAGTATGGAAA
system: PPARg:RXRa IVT, anti-PPARg (NR concentration 270 nM, RXRa partner concentration 90 nM)
PBM binding z-score: 1.75
//
sequence text: ACTCGGAGGACAAGGGTCAGAGCTACGCCAGTGA
system: PPARg:RXRa IVT, anti-PPARg (NR concentration 270 nM, RXRa partner concentration 90 nM)
PBM binding z-score: 1.88
//
sequence text: TGAATGAGGTTATAAGATCAGGGACCGTTGCAAA
system: PPARg:RXRa IVT, anti-PPARg (NR concentration 270 nM, RXRa partner concentration 90 nM)
PBM binding z-score: 1.99
//
sequence text: ACTATTAGTTGAGACGAGGGCAACCGCTAGGTTG
system: PPARg:RXRa IVT, anti-PPARg (NR concentration 270 nM, RXRa partner concentration 90 nM)
PBM binding z-score: 0.177
//
sequence text: TCTTGTAGATCAGGAGGTTAAGAAAGCTGGCCAA
system: PPARg:RXRa IVT, anti-PPARg (NR concentration 270 nM, RXRa partner concentration 90 nM)
PBM binding z-score: 0.654
//
sequence text: AGAATGAGGTTTCCAAAGATCAGGGAAACGCTTG
system: PPARg:RXRa IVT, anti-PPARg (NR concentration 270 nM, RXRa partner concentration 90 nM)
PBM binding z-score: -0.0805
//
sequence text: CGTCAAAGTTCAAGGTAAGGTAACAGAAAGCAGC
system: PPARg:RXRa IVT, anti-PPARg (NR concentration 270 nM, RXRa partner concentration 90 nM)
PBM binding z-score: 2.04
//
sequence text: GAAACGAGGGCAAGTTGATAGCAGAGTTTGATGG
system: PPARg:RXRa IVT, anti-PPARg (NR concentration 270 nM, RXRa partner concentration 90 nM)
PBM binding z-score: 4.04
//
sequence text: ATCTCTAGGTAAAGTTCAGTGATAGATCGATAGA
system: PPARg:RXRa IVT, anti-PPARg (NR concentration 270 nM, RXRa partner concentration 90 nM)
PBM binding z-score: 2.44
//
sequence text: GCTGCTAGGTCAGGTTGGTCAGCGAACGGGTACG
system: PPARg:RXRa IVT, anti-PPARg (NR concentration 270 nM, RXRa partner concentration 90 nM)
PBM binding z-score: 2.09
//
sequence text: TCGAGTAGGTTAGTCGGGGCCTTCAGCCAACATA
system: PPARg:RXRa IVT, anti-PPARg (NR concentration 270 nM, RXRa partner concentration 90 nM)
PBM binding z-score: 1.08
//
sequence text: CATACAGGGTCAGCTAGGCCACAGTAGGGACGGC
system: PPARg:RXRa IVT, anti-PPARg (NR concentration 270 nM, RXRa partner concentration 90 nM)
PBM binding z-score: 2.82
//
sequence text: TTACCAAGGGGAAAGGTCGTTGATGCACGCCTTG
system: PPARg:RXRa IVT, anti-PPARg (NR concentration 270 nM, RXRa partner concentration 90 nM)
PBM binding z-score: 2.61
//
sequence text: TCTAGCAGGCCAGAGAGTCACTCAAGAGGTACGG
system: PPARg:RXRa IVT, anti-PPARg (NR concentration 270 nM, RXRa partner concentration 90 nM)
PBM binding z-score: -0.685
//
sequence text: GCTATTAGTTGAAAGGGGAACCGAATGATTCTCG
system: PPARg:RXRa IVT, anti-PPARg (NR concentration 270 nM, RXRa partner concentration 90 nM)
PBM binding z-score: 0.272
//
sequence text: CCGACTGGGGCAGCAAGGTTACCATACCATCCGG
system: PPARg:RXRa IVT, anti-PPARg (NR concentration 270 nM, RXRa partner concentration 90 nM)
PBM binding z-score: 2.54
//
sequence text: TCTTGTCGATCAATAGAGGTTAAGAAAGTGCGCT
system: PPARg:RXRa IVT, anti-PPARg (NR concentration 270 nM, RXRa partner concentration 90 nM)
PBM binding z-score: 0.566
//
sequence text: CGTCCAAGGTCAAAAGTCAGTGAAGAGATGACGG
system: PPARg:RXRa IVT, anti-PPARg (NR concentration 270 nM, RXRa partner concentration 90 nM)
PBM binding z-score: 3.24
//
sequence text: CCTTACGGGTCATTGACAGGTTATAGCATTTGGA
system: PPARg:RXRa IVT, anti-PPARg (NR concentration 270 nM, RXRa partner concentration 90 nM)
PBM binding z-score: 2.72
//
sequence text: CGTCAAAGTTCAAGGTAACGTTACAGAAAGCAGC
system: PPARg:RXRa IVT, anti-PPARg (NR concentration 270 nM, RXRa partner concentration 90 nM)
PBM binding z-score: 2.42
//
sequence text: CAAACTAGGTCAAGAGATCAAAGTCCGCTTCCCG
system: PPARg:RXRa IVT, anti-PPARg (NR concentration 270 nM, RXRa partner concentration 90 nM)
PBM binding z-score: 8.28
//
sequence text: CGAACTCGGTCAGAACAGGACAGTGAAGGATGAT
system: PPARg:RXRa IVT, anti-PPARg (NR concentration 270 nM, RXRa partner concentration 90 nM)
PBM binding z-score: 1.11
//
sequence text: CCTGACGGGTCACTCCAGGTTATAGCATCGGAGT
system: PPARg:RXRa IVT, anti-PPARg (NR concentration 270 nM, RXRa partner concentration 90 nM)
PBM binding z-score: 2.14
//
sequence text: ATCTCTAGCTAACAAGTTCAGTGAAAGAGAGGAC
system: PPARg:RXRa IVT, anti-PPARg (NR concentration 270 nM, RXRa partner concentration 90 nM)
PBM binding z-score: 0.373
//
sequence text: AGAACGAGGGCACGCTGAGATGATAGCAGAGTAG
system: PPARg:RXRa IVT, anti-PPARg (NR concentration 270 nM, RXRa partner concentration 90 nM)
PBM binding z-score: 3.41
//
sequence text: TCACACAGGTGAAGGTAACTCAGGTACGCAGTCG
system: PPARg:RXRa IVT, anti-PPARg (NR concentration 270 nM, RXRa partner concentration 90 nM)
PBM binding z-score: 1.69
//
sequence text: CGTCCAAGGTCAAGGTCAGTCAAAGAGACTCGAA
system: PPARg:RXRa IVT, anti-PPARg (NR concentration 270 nM, RXRa partner concentration 90 nM)
PBM binding z-score: 4.78
//
sequence text: ATCTCTGGGTAAGACTCAGTTCAGTGAAGAACGC
system: PPARg:RXRa IVT, anti-PPARg (NR concentration 270 nM, RXRa partner concentration 90 nM)
PBM binding z-score: 1.22
//
sequence text: GGAACGAGGGCAAAGTGGATAGCATCTGTCGACG
system: PPARg:RXRa IVT, anti-PPARg (NR concentration 270 nM, RXRa partner concentration 90 nM)
PBM binding z-score: 3.72
//
sequence text: ATCTCTAGGTAATGATAGTTCAGTGAATGCAAAT
system: PPARg:RXRa IVT, anti-PPARg (NR concentration 270 nM, RXRa partner concentration 90 nM)
PBM binding z-score: 2.17
//
sequence text: GCTATTAGTTGAAACGGCAACCGAATGATTCTCG
system: PPARg:RXRa IVT, anti-PPARg (NR concentration 270 nM, RXRa partner concentration 90 nM)
PBM binding z-score: -0.276
//
sequence text: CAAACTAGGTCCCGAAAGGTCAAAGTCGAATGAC
system: PPARg:RXRa IVT, anti-PPARg (NR concentration 270 nM, RXRa partner concentration 90 nM)
PBM binding z-score: 4.78
//
sequence text: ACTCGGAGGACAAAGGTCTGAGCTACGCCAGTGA
system: PPARg:RXRa IVT, anti-PPARg (NR concentration 270 nM, RXRa partner concentration 90 nM)
PBM binding z-score: 0.315
